The entries below come with measured EC50 hGIPR 100% hP (CreLuc) values attached.
# target desc: T1, GIP receptor (human (printed as hGIPR), UniProt P48546 22-466)
# T1 sequence (looked up): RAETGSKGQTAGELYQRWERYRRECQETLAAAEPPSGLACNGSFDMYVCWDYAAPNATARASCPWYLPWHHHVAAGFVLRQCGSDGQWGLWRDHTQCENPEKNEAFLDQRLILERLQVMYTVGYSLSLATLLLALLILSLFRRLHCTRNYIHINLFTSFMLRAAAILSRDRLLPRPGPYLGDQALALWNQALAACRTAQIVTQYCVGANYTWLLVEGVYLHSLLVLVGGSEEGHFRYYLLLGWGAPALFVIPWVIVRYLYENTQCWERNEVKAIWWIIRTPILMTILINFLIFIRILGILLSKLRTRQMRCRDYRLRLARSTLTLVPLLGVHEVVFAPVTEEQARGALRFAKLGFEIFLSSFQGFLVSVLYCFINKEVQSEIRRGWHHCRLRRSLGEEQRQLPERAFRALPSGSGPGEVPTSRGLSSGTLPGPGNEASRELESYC
# assay protocol: cell-based or functional assay
Starred links: 1 amine or outer side, 2 acyl side, 3 side chain; linkers in the order of their positions; H or OH if unused. Non-standard residues stand in square brackets, D forms with d. Groups on a side chain read outwards from the residue. No end group written: not given here. *: point of attachment. C20 diacid = O=C(O)CCCCCCCCCCCCCCCCCCC(=O)*; C18 diacid = O=C(O)CCCCCCCCCCCCCCCCC(=O)*; γGlu = O=C(O)[C@H](CCC(=O)[*:2])N[*:1]; εLys = N[C@@H](CCCCN[*:1])C(=O)[*:2]; AEEA = NCCOCCOCC(=O)O; Aib = CC(C)(N)C(=O)O

{"binder": "YXEGTFTSDYSIXLEKQAQXAFVEWLIKGGPSSGASLRHYYNLLTRQRY (Aib at 2, 13, 20; K28 side chain carries C20DA-gGlu-gGlu-gGlu-gGlu-gGlu-gGlu-eLys; C-terminal amide) [Compound 195]", "EC50 hGIPR 100% hP (CreLuc) / nM": 1.42}
{"binder": "YXEGTFTSDYSIXLEKQAQXAFVEWLIKGGPSEYVSLRHYYNWLTRQRY (Aib at 2, 13, 20; K28 side chain carries C20DA-gGlu-gGlu-gGlu-gGlu-gGlu-gGlu-eLys; C-terminal amide) [Compound 217]", "EC50 hGIPR 100% hP (CreLuc) / nM": 8.85}
{"binder": "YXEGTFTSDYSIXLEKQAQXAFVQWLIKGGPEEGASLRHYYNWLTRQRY (Aib at 2, 13, 20; K28 side chain carries C18DA-E-E-E-E-E-E-eLys (SEQ ID NO: 643); C-terminal amide) [Compound 196]", "EC50 hGIPR 100% hP (CreLuc) / nM": 3.68}
{"binder": "YXEGTFTSDYSIXLEKQAQXAFVEWLIKGGPSSGASLRHYYNXLTRQRY (Aib at 2, 13, 20, 43; K28 side chain carries C20DA-gGlu-gGlu-gGlu-gGlu-gGlu-gGlu-eLys; C-terminal amide) [Compound 218]", "EC50 hGIPR 100% hP (CreLuc) / nM": 2.35}
{"binder": "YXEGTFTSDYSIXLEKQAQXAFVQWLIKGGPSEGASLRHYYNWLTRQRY (Aib at 2, 13, 20; K28 side chain carries C18DA-E-E-E-E-E-E-eLys (SEQ ID NO: 643); C-terminal amide) [Compound 249]", "EC50 hGIPR 100% hP (CreLuc) / nM": 1.25}
{"binder": "Y[Aib]EGTFTSDYSI[Aib]LEKQAQ[Aib]AFVEWLIK([AEEA-AEEA-γGlu-γGlu-γGlu-γGlu-C18 diacid])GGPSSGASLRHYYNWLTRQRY-NH2 (also: TFA salt) [Compound 254]", "EC50 hGIPR 100% hP (CreLuc) / nM": 0.63}
{"binder": "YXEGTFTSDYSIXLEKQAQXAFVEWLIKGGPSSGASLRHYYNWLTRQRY (Aib at 2, 13, 20; K28 side chain carries C20DA-gGlu-gGlu-gGlu-gGlu-gGlu; C-terminal amide) [Compound 238]", "EC50 hGIPR 100% hP (CreLuc) / nM": 1.59}
{"binder": "Y[Aib]EGTFTSDYSI[Aib]LEKQAE[Aib]AFVQWLIK([AEEA-AEEA-γGlu-γGlu-γGlu-γGlu-C20 diacid])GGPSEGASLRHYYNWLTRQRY-NH2 (also: TFA salt) [Compound 219]", "EC50 hGIPR 100% hP (CreLuc) / nM": 2.43}
{"binder": "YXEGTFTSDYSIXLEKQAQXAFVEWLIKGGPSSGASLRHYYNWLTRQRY (Aib at 2, 13, 20; K28 side chain carries C20DA-gGlu-gGlu-gGlu-gGlu-gGlu-OEG-OEG; C-terminal amide) [Compound 229]", "EC50 hGIPR 100% hP (CreLuc) / nM": 1.42}
{"binder": "Y[Aib]EGTFTSDYSI[Aib]LEKQAQ[Aib]AFVQWLIK([εLys-Glu-Glu-Glu-Glu-Glu-C20 diacid])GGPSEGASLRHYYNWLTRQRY-NH2 (also: TFA salt) [Compound 240]", "EC50 hGIPR 100% hP (CreLuc) / nM": 1.97}
